Experiment: Cytotoxicity against mouse B16F10 cells assessed as cell viability at 40 ug/ml incubated for 24 hrs by MTT assay relative to control
Type: cell-based, B16-F10
Details: read-out: Activity
Property name: viability at 24 h, 40 ug/ml

Enquiry: Using known records, supply viability at 24 h, 40 ug/ml for `COc1cccc(OC(=O)COC(=O)/C=C/c2ccc(O)cc2)c1`
Return: > 95%

----------
Heads up, these compounds all have pIC50 values measured for Tyrosinase (Agaricus bisporus).
pIC50 here: minus log base 10 of the concentration, concentration in moles per litre.

COc1cccc(OC(=O)COC(=O)/C=C/c2ccc(O)cc2)c1 :: 5.24
COc1cccc(OC(=O)COC(=O)c2ccc(O)c(O)c2)c1 :: 3.52
COc1cccc(OC(=O)COC(=O)c2cc(O)cc(O)c2)c1 :: 3.72
COc1cccc(OC(=O)COC(=O)c2ccc(O)cc2O)c1 :: 4.62

Enquiry: Using known records, supply pIC50 for `COc1cccc(OC(=O)COC(=O)/C=C/c2ccccc2)c1`
Return: 4.40

Each recorded value in this set is attributed to ChEMBL document CHEMBL4342432.
